Origin of the recorded values: ChEMBL document CHEMBL5055674

Consider the following compounds and their measured pIC50 readings.
Target: Bifunctional epoxide hydrolase 2 (Homo sapiens)
Sequence (P34913 whole entry): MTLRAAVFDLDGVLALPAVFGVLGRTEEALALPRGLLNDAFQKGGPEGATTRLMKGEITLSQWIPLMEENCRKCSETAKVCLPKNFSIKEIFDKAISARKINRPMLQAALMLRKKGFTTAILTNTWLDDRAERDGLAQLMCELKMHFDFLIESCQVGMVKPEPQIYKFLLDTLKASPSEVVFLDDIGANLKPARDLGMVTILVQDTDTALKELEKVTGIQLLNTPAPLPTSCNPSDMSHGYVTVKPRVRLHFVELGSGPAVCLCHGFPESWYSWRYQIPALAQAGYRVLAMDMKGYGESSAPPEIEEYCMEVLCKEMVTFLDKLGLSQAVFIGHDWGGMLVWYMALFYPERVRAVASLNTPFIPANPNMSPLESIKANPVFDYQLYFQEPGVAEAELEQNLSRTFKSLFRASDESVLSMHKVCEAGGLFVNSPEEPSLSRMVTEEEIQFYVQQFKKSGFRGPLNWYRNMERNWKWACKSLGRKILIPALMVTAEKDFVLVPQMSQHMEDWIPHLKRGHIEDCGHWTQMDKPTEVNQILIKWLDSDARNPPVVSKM
Experiment: Inhibition of human sEH using cyano(6-methoxynaphthalen-2-yl)methyl((3-phenyloxiran-2-yl)methyl)carbonate as a substrate assessed as reduction in 6-methoxynaphthaldehyde formation by fluorescence microplate reader assay
pIC50: −log10 of the molar value.
MEASURE NAME: pIC50

>>> print(df.to_string())
                                    compound  rel  test_value
 0  O=C(Nc1ccc(Cc2ccc(Cl)cc2)cc1)C1CCN(S(=O)(=O)c2ccccc2Cl)CC1    =        6.77
 1  O=C(Nc1ccccc1)C1CCN(S(=O)(=O)c2ccccc2Cl)CC1    <        5.00
 2  O=C(Nc1ccc(F)cc1)C1CCN(S(=O)(=O)c2ccccc2Cl)CC1    <        5.00
 3  O=C(Nc1ccc(-c2ncco2)cc1)C1CCN(S(=O)(=O)c2ccccc2Cl)CC1    =        6.74
 4  O=C(Nc1ccc(-c2nccs2)cc1)C1CCN(S(=O)(=O)c2ccccc2Cl)CC1    =        8.04
 5  Cc1ccc2sc(-c3ccc(NC(=O)C4CCN(S(=O)(=O)c5ccccc5Cl)CC4)cc3)nc2c1    =        8.06
 6  Cn1c(-c2ccc(NC(=O)C3CCN(S(=O)(=O)c4ccccc4Cl)CC3)cc2)nc2ccccc21    =        5.85
 7  O=C(Nc1ccc(Cl)cc1)C1CCN(S(=O)(=O)c2ccccc2Cl)CC1    <        5.00
 8  Cc1ccc(NC(=O)C2CCN(S(=O)(=O)c3ccccc3Cl)CC2)cc1    <        5.00
 9  O=C(Nc1ccc(Br)cc1)C1CCN(S(=O)(=O)c2ccccc2Cl)CC1    <        5.00
10  O=C(Nc1ccc(C2Oc3ccccc3S2)cc1)C1CCN(S(=O)(=O)c2ccccc2Cl)CC1 (stereo unspecified)    =        7.64

* * *

Consider the following molecules and their measured log10 of IC50 readings.
Target sequence: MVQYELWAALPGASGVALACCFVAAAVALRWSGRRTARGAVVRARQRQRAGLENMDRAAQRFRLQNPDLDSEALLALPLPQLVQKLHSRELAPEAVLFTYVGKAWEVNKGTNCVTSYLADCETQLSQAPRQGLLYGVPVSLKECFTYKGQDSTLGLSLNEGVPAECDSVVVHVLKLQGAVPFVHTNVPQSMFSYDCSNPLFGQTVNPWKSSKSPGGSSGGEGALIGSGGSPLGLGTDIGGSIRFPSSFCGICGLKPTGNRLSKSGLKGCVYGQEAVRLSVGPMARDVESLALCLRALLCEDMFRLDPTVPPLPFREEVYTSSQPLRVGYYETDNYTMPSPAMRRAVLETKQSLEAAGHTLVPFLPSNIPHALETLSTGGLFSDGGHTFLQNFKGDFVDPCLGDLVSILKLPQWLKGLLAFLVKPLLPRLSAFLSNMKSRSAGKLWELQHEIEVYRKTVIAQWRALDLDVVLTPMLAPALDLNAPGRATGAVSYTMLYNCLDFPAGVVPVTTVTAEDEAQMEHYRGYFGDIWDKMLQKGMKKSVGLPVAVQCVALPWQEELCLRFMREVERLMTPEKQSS
MEASURE NAME: log10 of IC50 (log10 of the value in nM)

                         compound_structure   measure_name  test_value
0  O=C(Nc1ccc(Br)cc1)C1CCN(S(=O)(=O)c2ccccc2Cl)CC1  log10 of IC50        2.11
1  O=C(Nc1ccc(-c2nccs2)cc1)C1CCN(S(=O)(=O)c2ccccc2Cl)CC1  log10 of IC50        2.01
2  O=C(Nc1ccc(Cl)cc1)C1CCN(S(=O)(=O)c2ccccc2Cl)CC1  log10 of IC50        2.20
3  Cc1ccc2sc(-c3ccc(NC(=O)C4CCN(S(=O)(=O)c5ccccc5Cl)CC4)cc3)nc2c1  log10 of IC50        0.26
4  O=C(Nc1ccc(-c2ncco2)cc1)C1CCN(S(=O)(=O)c2ccccc2Cl)CC1  log10 of IC50        2.15
5  O=C(Nc1ccccc1)C1CCN(S(=O)(=O)c2ccccc2Cl)CC1  log10 of IC50        2.71
